target: His6-AspH315–758 (human aspartate/asparagine-β-hydroxylase, AspH) (Homo sapiens); construct: N-Terminally His6-tagged human AspH315–758 (His6-AspH315–758) was produced in E. coli BL21 (DE3) cells; made in house; host or cells: E. coli BL21 (DE3), pET-28a(+) vector; test: SPE-MS AspH inhibition assay (LOPAC screen at fixed 20 μM and IC50 dose-response), hydroxylation of cyclic peptide hFX-CP101–119; type: biochemical; settings: LOPAC compound at fixed 20 uM; substrate conversion, plate 1
Counter-ions that a name gives are not always drawn.
Experimental Readout: Plate 1 (% conversion) (%)
Provide only the numeric value, understood in %.

Take a look at these entries with their results.
>>> df
                                   compound  reported_result
0                  Cc1cc(Cl)ccc1OCCCC(=O)NO            35.25
1  Cl.c1ccc2nc(C3=NCCN3)ccc2c1 [BU224 hydrochloride]            37.63
2  C[C@]12CC[C@@H]3c4ccc(O)cc4C[C@@H](CCCCCCCCC[S+]([O-])CCCC(F)(F)C(F)(F)F)[C@H]3[C@@H]1CC[C@@H]2O (stereo partly shown)            31.54

Exam item: Return reported Plate 1 (% conversion); argument: C=CCn1c(=O)c2c(nc(-c3ccc(S(=O)(=O)O)cc3)n2C)n(C)c1=O
Marked response: 38.22

Exam item: Return reported Plate 1 (% conversion); argument: CC(=O)NCCc1c[nH]c2ccccc12
Marked response: 37.98

Exam item: Return reported Plate 1 (% conversion); argument: CCOC(=O)C(C)(C)Oc1ccc(Cl)cc1 [Clofibrate]
Marked response: 39.80

Exam item: Return reported Plate 1 (% conversion); argument: CN1CCc2cccc3c2[C@H]1Cc1ccc(O)c(O)c1-3 [Apomorphine hydrochloride hemihydrate]
Marked response: 8.92

Exam item: Return reported Plate 1 (% conversion); argument: N#Cc1cc([N+](=O)[O-])c2sc(C(N)=O)[n+]([O-])c2c1
Marked response: 36.60

Exam item: Return reported Plate 1 (% conversion); argument: OCCN1CCN(CCCN2c3ccccc3C=Cc3ccccc32)CC1 [Opipramol dihydrochloride]
Marked response: 39.99

Exam item: Return reported Plate 1 (% conversion); argument: N[C@@H](CCCC(=O)O)C(=O)O
Marked response: 36.83

====

Molecular target: His6-AspH315–758 (human aspartate/asparagine-β-hydroxylase, AspH) (Homo sapiens)
Construct: N-Terminally His6-tagged human AspH315–758 (His6-AspH315–758) was produced in E. coli BL21 (DE3) cells; made in house; host or cells: E. coli BL21 (DE3), pET-28a(+) vector
Sequence (Q12797 315-758): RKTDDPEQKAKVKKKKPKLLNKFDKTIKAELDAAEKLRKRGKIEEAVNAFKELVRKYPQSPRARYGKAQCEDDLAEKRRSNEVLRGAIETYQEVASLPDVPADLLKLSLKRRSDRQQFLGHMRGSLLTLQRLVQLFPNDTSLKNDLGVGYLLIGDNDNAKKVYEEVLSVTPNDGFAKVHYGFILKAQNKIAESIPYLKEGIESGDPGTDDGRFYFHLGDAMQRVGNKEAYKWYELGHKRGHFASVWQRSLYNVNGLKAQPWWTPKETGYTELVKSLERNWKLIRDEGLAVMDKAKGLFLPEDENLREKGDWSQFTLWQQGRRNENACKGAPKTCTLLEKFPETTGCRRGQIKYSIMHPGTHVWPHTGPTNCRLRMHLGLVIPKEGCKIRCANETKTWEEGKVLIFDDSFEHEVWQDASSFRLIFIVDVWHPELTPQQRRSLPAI
Experiment: SPE-MS AspH inhibition assay (LOPAC screen at fixed 20 μM and IC50 dose-response), hydroxylation of cyclic peptide hFX-CP101–119
Type: biochemical
Details: LOPAC compound at fixed 20 uM; substrate conversion, plate 1
Counter-ions that a name gives are not always drawn.
Here, each record is paired with measured Plate 1 (% conversion) data.
Provide only the numeric value, understood in %.

Molecule	Plate 1 (% conversion), %
CC(/C=C/c1cccc(Oc2ccc(F)cc2)c1)N(O)C(N)=O (stereo not shown) [BWB70C]	36.94
C[N+](C)(C)CC#CCOC(=O)Nc1cccc(Cl)c1.[Cl-]	36.40
CSc1nc(N)c2ncn([C@@H]3O[C@H](COP(=O)([O-])OP(=O)([O-])[O-])[C@@H](O)[C@H]3O)c2n1.O.[Na+].[Na+].[Na+]	30.40
Cn1cc(C(=O)OCC2CCN(CCNS(C)(=O)=O)CC2)c2ccccc21	37.79

Exam item: Return reported Plate 1 (% conversion); argument: NCCCCCC(=O)O
Marked response: 36.13

Exam item: Return reported Plate 1 (% conversion); argument: CN(C)CCC(c1ccc(Br)cc1)c1ccccn1.O=C(O)/C=C\C(=O)O (racemic) [(±)-Brompheniramine maleate]
Marked response: 32.86

Exam item: Return reported Plate 1 (% conversion); argument: Cc1cc(Nc2ncc3cc(-c4c(Cl)cccc4Cl)c(=O)n(C)c3n2)ccc1F
Marked response: 37.77

Exam item: Return reported Plate 1 (% conversion); argument: c1ccc2cc(-c3ncc[nH]3)ccc2c1 [Benazoline oxalate]
Marked response: 9.94

Exam item: Return reported Plate 1 (% conversion); argument: CCCn1c(=O)c2[nH]c(-c3ccc(S(=O)(=O)O)cc3)nc2n(CCC)c1=O
Marked response: 36.66

Exam item: Return reported Plate 1 (% conversion); argument: NCCCC(=O)O
Marked response: 36.54

Exam item: Return reported Plate 1 (% conversion); argument: CCCNC(=O)NS(=O)(=O)c1ccc(Cl)cc1 [Chlorpropamide]
Marked response: 37.08

Exam item: Return reported Plate 1 (% conversion); argument: CN(C)CC/C=C1/c2ccccc2Sc2ccc(Cl)cc21 [Chlorprothixene hydrochloride]
Marked response: 45.26

Exam item: Return reported Plate 1 (% conversion); argument: NC[C@H](O)c1ccc(O)c(O)c1.O=C(O)C(O)C(O)C(=O)O [L(-)-Norepinephrine bitartrate]
Marked response: 5.81
